system: P388 leukemia ip, CD2F1 mice, survival T/C; test: NCI In Vivo Anticancer Drug Screen. Data for tumor model P388 Leukemia (intraperitoneal) in CD2F1 (CDF1) mice; conditions: endpoint: median survival time; dose: 100.0 mg/kg/injection; schedule: Q04DX003 (ip); vehicle: saline; higher = longer survival
Toxic doses and inconclusive results are not listed.
Answer each item with its documented T/C.

In the examples that follow, each entry is paired with its recorded T/C.
>>> reading("COC1(c2ccccc2)C(c2ccccc2)=CC(c2ccccc2)=[N+]1[O-] (configuration not stated)")
"109 % of control"
>>> reading("O=C1c2ccccc2OCC1CS(=O)(=O)CC1COc2ccccc2C1=O (configuration not stated)")
"98 % of control"
>>> reading("O=C1NC(=O)C(C23CCN(CC2)CC3)N1 (configuration not stated)")
"101 % of control"
>>> reading("CN(C)CCCN1c2ccccc2Sc2ccc(Cl)cc21")
"99 % of control"

// batch mode: one T/C value per listed entry
1. COC1OC(CO)C(O)C(O)C1O (configuration not stated)
2. CNC(=O)CCl
3. O=S(=O)(NO)c1cccc(S(=O)(=O)NO)c1

1. 109 % of control
2. 99 % of control
3. 110 % of control
